Experiment notes: Human HepG2 cell viability assay in 384 well format
Assay type: toxicity, cell-based
Set-up: dose 125 nL, time 70.5 hour; concentration not given beside the values
Assay conditions: HepG2 cells, read-out: Inhibition
Reported metric: cytotoxicity at 70.5 h (%)
Answer with a number only, understood to be in %.

# get_value(readout='cytotoxicity at 70.5 h', item= CC(NC(=O)c1cc(-c2cccc(Cl)c2)no1)C(=O)N(C)C (centres undefined) ) -17.3

Do the same for O=C(CC1CC1)N1C[C@@H]2CCN(c3cccnc3)C[C@@H]2C1 please -11.6

Do the same for COc1cccc(NC(=O)c2nc3ccccc3n(C)c2=O)c1 please -6.23

Do the same for O[C@@H]1C[C@H]2CN(Cc3ccccc3Cl)[C@H](Cc3ccccc3)CN2C1 please 25.5

The measured values listed here are drawn from ChEMBL document CHEMBL3507680.
